Kindly find below IC50 information for Cytochrome P450 3A4 (Homo sapiens) taken from the literature.
VALUE_TYPE: IC50 (nM)

1. CN(C)C[C@H]1C[C@H](c2nc(-c3ccc4ccc(-c5ccccc5)nc4c3)c3c(N)nccn32)C1
2. O=CN1CCC(Oc2ccc(-c3n[nH]c4ccc(C(=O)NC(c5ccccc5)C5CC5)cc34)cc2)CC1 (racemic)
3. O=S(=O)(Nc1ncns1)c1cc(F)c(OC[C@H]2CNCC[C@@H]2c2ccc(Cl)cc2)cc1F
4. N#Cc1ccc(N[C@H]2CCN(C(=O)O[C@H]3C4CC5CC3C[C@](C(N)=O)(C5)C4)C2)nc1
Request: Sort key: IC50. Order: high to low. Scope: items listed above. Present the labels in the sequence the task asks for.
Result: 4, 1, 2, 3
(4: 26600 nM, 1: 15000 nM, 2: 1500 nM, 3: 150 nM)
